biological target: human CYP1A1, CYP1A1 (gene 1543); experiment: NVS_ADME_hCYP1A1: NovaScreen (NVS) CYP450-related Enzyme Activity (ADME) Assay for human CYP1A1 (AID 2283100)
Records with an inconclusive call do not appear. The source made the active and inactive calls. How the source made its calls: active means hit-call score of the fitted dose curve at least 0.9, where 1 is the maximum; inconclusive means response in the unintended direction; inactive means score below 0.9.
Select the correct class. Options are active, inactive and nothing else.

For CCCC1COC(Cn2cncn2)(c2ccc(Cl)cc2Cl)O1 (stereo unspecified) , what call appears in the results of this test? active

For CCOC(=O)CC(SP(=S)(OC)OC)C(=O)OCC (stereo unspecified) , what call appears in the results of this test? active

For `CCNc1nc(Cl)nc(NCC)n1` , what call appears in the results of this test? inactive

For C=CC1(C)OC(=O)N(c2cc(Cl)cc(Cl)c2)C1=O (stereo unspecified) , what call appears in the results of this test? inactive

For N#CC(CCc1ccc(Cl)cc1)(Cn1cncn1)c1ccccc1 (stereo unspecified) , what call appears in the results of this test? inactive

For `COC(=O)N(OC)c1ccccc1COc1ccn(-c2ccc(Cl)cc2)n1` , what call appears in the results of this test? active
